- Tested on: Escherichia coli
- Assay Procedure: Antibacterial activity against Escherichia coli NCIM 2065 assessed as growth inhibition after 24 hr by NCCLS broth dilution method
- Type: functional
- Test Settings: NCIM 2065, 24 h
Outcome Measure: log10 MIC (log10 of the value in µg/mL)
Scale type: logarithmic (base 10). Underlying MIC unit: µg/mL.

Looking up CC1COc2c(N3CCN(C)CC3)c(F)cc3c(=O)c(C(=O)O)cn1c23 (stereo not given) [OFLOXACIN] , I found its log10 MIC recorded as 0.49

Just so you know, measured log10 MIC for `NC(=O)NNc1nc(Nc2ccc([N+](=O)[O-])cc2)nc(N2CCN(C(=S)Nc3ccnc4cc(Cl)ccc34)CC2)n1` came out at 1.10

// field: log10 MIC; key: `NC(=S)NNc1nc(Nc2ccc([N+](=O)[O-])cc2)nc(N2CCN(C(=S)Nc3ccnc4cc(Cl)ccc34)CC2)n1` ; value = 0.80

For record `Cc1ccc(Nc2nc(Nc3ccc([N+](=O)[O-])cc3)nc(N3CCN(C(=S)Nc4ccnc5cc(Cl)ccc45)CC3)n2)cc1` the listed log10 MIC is 1.10

// log10 MIC value for `O=[N+]([O-])c1ccc(Nc2nc(Nc3ccc(O)cc3)nc(N3CCN(C(=S)Nc4ccnc5cc(Cl)ccc45)CC3)n2)cc1` : 1.70

# molecule `NNc1nc(Nc2ccc([N+](=O)[O-])cc2)nc(N2CCN(C(=S)Nc3ccnc4cc(Cl)ccc34)CC2)n1.O` ; its log10 MIC = 1.40

log10 MIC reading for `O=[N+]([O-])c1ccc(Nc2nc(Nc3ccccc3)nc(N3CCN(C(=S)Nc4ccnc5cc(Cl)ccc45)CC3)n2)cc1` : 1.10

Given item `NCCCNc1nc(Nc2ccc([N+](=O)[O-])cc2)nc(N2CCN(C(=S)Nc3ccnc4cc(Cl)ccc34)CC2)n1` , the value recorded as its log10 MIC is 1.10

// field: log10 MIC; key: `Cc1ccccc1Nc1nc(Nc2ccc([N+](=O)[O-])cc2)nc(N2CCN(C(=S)Nc3ccnc4cc(Cl)ccc34)CC2)n1` ; value = 0.80

Lookup result for `O=[N+]([O-])c1ccc(Nc2nc(N3CCOCC3)nc(N3CCN(C(=S)Nc4ccnc5cc(Cl)ccc45)CC3)n2)cc1` ; measured log10 MIC: 0.80

meta.source: ChEMBL document CHEMBL3045227
